target-under-test: Human SARS-CoV-2_Wuhan S (SmT1) (SARS-CoV-2 (Wuhan), UniProt P0DTC2 14-1208)
test-name: flow cytometry SVNA, VHH vs biotin-S binding to Vero E6 ACE2
result-type: pIC50
Give bare numbers, as −log10 of the molar value.

NRCoV2-MRed05 VHH (VHH) VHH: EVQLVESGGGLVQPGGSLRLSCAASGFTLDYYAIGWFRQAPGKEREGVSCISSSDGSTLYADSVKGRFTISRDNAKNTVYLQMNSLKPEDTAVYYCATGPQAYYSGSYYFQCPQAGMDYWGKGTQVTVSS ... 7.82
NRCoV2-14 VHH (VHH) VHH: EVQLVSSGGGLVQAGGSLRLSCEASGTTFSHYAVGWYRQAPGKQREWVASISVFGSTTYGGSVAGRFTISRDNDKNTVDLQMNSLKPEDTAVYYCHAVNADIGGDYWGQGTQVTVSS ... 7.67
NRCoV2-MRed04 VHH (VHH) VHH: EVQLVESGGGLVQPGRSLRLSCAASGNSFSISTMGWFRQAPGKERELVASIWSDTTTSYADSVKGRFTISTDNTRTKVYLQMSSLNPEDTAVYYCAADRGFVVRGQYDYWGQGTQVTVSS ... 8.21

List reported pIC50 for each of these binders:
1. NRCoV2-07 VHH (VHH) VHH: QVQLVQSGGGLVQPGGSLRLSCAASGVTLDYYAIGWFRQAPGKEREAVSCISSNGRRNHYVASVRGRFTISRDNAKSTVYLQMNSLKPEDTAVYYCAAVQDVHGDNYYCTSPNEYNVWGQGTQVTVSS
2. NRCoV2-20 VHH (VHH) VHH: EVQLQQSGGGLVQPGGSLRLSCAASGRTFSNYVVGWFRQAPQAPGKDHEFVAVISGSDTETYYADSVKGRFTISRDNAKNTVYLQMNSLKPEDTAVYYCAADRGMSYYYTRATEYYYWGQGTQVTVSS
3. NRCoV2-15 VHH (VHH) VHH: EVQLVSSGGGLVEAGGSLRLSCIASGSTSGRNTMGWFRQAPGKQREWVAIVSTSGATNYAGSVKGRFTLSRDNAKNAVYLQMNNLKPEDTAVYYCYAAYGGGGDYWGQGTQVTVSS

1. 8.12
2. 8.29
3. 7.92
